Target: T1, BLNK SH2 domain (human, UniProt Q8WV28 346-453)
T1 construct: BLNK, human; source: bacterial expression, purified
T1 sequence (looked up): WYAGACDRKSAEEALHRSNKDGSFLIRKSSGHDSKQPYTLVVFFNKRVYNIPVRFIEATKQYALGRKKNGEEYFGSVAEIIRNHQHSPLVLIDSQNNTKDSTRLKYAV
Assay: peptide or protein array; SH2/PTB proteins spotted on aldehyde slides, rhodamine peptide titrated in buffer B (20 mM HEPES, 100 mM KCl, 0.1% Tween-20, 5 mM DTT, pH 7.8), 1 h at room temperature; replicate assays
Settings: both partners purified
pKd: −log10 of the molar value. Non-standard residues stand in square brackets, D forms with d. No end group written: not given here. pY = N[C@@H](Cc1ccc(OP(=O)(O)O)cc1)C(=O)O; Rhodamine = not defined here
MEASUREMENT_TYPE: pKd

binder="Rhodamine-PLQR[pY]SEDPTVPD (reading uncertain) [ErbB2 pY1112 phosphopeptide, rhodamine-labelled, for protein microarrays]" observed=5.31

Data provenance: paper PMC3433420
